Quick reference for growth among some molecules
Tested on: UACC-257 melanoma
Assay: NCI-60 one-dose screen, 48 h (100 = growth as untreated, 0 = no growth, -100 = all killed)
Conditions: 10 µM unless noted
Compounds without any hit were thinned out: in the full panel of roughly 83,000, 20% have a hit.
# output: bare number, implied unit %

Study these solved cases before continuing.
COc1ccc(S(=O)(=O)N(Cc2ccc3c(c2)C=CC(C)(C)O3)c2ccccc2)cc1OC: 61.9
COC(=O)C1OC(Oc2ccc(N(CCCl)CCCl)cc2)C(OC(C)=O)C(OC(C)=O)C1OC(C)=O (centres undefined): 79.6

The molecule listed as "ClCCN(CCCl)c1ccc(/C=N\N=C\c2ccc(N(CCCl)CCCl)cc2)cc1" shows growth equal to 31

The molecule listed as "COC(=O)[C@@H](C)C[C@H](Cc1ccccc1)NC(=O)c1csc([C@@H](C[C@H](C(C)C)N(C)C(=O)C2(NC(=O)[C@H]3CCCCN3C)CCC2)OC(C)=O)n1" shows growth equal to 60.2

The molecule listed as "CC1(C)N=C(N)N=C(N)N1c1ccc(CCCCc2ccc(Cl)c(S(=O)(=O)F)c2)c(Cl)c1" shows growth equal to 18.3

The molecule listed as "COc1cc([C@@H]2c3cc4c(cc3[C@H](OC(C)=O)[C@H]3COC(=O)[C@@H]23)OCO4)cc(OC)c1OC" shows growth equal to 49.2

====

System: BT-549 breast
Assay: NCI-60 one-dose screen, 48 h (100 = growth as untreated, 0 = no growth, -100 = all killed)
Conditions: 10 µM unless noted
This is part of a sample that, as a whole, favours compounds with a hit. Of some 83,000 tested, about 20% had one in any assay.
Decide using growth alone. Strictly below 90%: satisfied. Equal to or above 90%: not satisfied.

input: Is growth strictly under 90% for the entry "O=C(CN1CCN(C(=O)c2ccco2)CC1)Nc1ccc(Cl)cc1C(=O)c1ccccc1Cl" ?
output: not satisfied

input: Is growth strictly under 90% for the entry "CC(=O)/C=C/c1ccc2c(c1)OCO2" ?
output: not satisfied

input: Is growth strictly under 90% for the entry COc1cc(C=C2c3ccccc3C(=O)c3ccccc32)ccc1OCCCCOc1cc2c(cc1OC)C(=O)N1CCCC1C=N2 (configuration not stated) ?
output: satisfied

input: Is growth strictly under 90% for the entry CC(=O)O[C@H](C[C@H](C(C)C)N(C)C(=O)[C@@H](NC(=O)[C@H]1CCCCN1C)C(C)C)c1nc(C(=O)NC2CCC(C(=O)O)CC2)cs1 (some centres not stated) ?
output: satisfied

input: Is growth strictly under 90% for the entry "COc1ccc2c(c1)c(-c1nc(-c3c[nH]c4ncccc34)cs1)cn2CCCCN1CCCCC1" ?
output: satisfied

====

Quick reference for growth among some compounds
Tested on: NCI-H460 lung
Assay: NCI-60 one-dose screen, 48 h (100 = growth as untreated, 0 = no growth, -100 = all killed)
Conditions: 10 µM unless noted
Description: Growth inhibition of the NCI-H460 human Non-Small Cell Lung tumor cell line is measured as a screen for anti-cancer activity. Cells are grown in 96 well plates and exposed to the test compound for 48 hours. Compounds are tested at a single concentration, which is 10^-5 M for most compounds. The reported endpoint is percent growth (GI% or GIPRCNT), where numbers from 0 - 100% represent growth inhibition, and numbers from -100% - 0 represent cell death. […]
About 83,000 compounds went through this panel and 20% of them were active in at least one assay; those are over-represented in the sample as a whole.
# output: bare number, implied unit %

Study these solved cases before continuing.
COc1cc(C=Nc2cccc(Br)c2)ccc1N(CCCl)CCCl: 21.9
CN1C(=O)C23CC4(C56CC78SSC(CO)(C(=O)N7C5Nc5ccccc56)N(C)C8=O)c5ccccc5NC4N2C(=O)C1(CO)SS3 (centres undefined): -89.4
CC(=O)O[C@H]1C(=O)[C@@]2(C)[C@H]([C@H](OC(=O)c3ccccc3)[C@]3(O)C[C@H](OC(=O)[C@H](OC(=O)OCC4COC(C)(C)O4)[C@@H](NC(=O)c4ccccc4)c4ccccc4)C(C)=C1C3(C)C)[C@]1(OC(C)=O)CO[C@@H]1C[C@@H]2O (some centres undefined): 13.1

We next turn to a different compound, shown below.
The compound listed as C[S+]1C=Cc2ccccc2C1c1ccc(Cl)cc1 (centres undefined) shows growth equal to 99.6
